- Tested on: HIV
- assay.name: microbe, parasite or virus in culture
- Assay type: cell-based
- conditions.used: Human immunodeficiency virus 1, PANEL 17, L74V
experimental.endpoint: IC50 (nM)
One number for each entry, in nM.

Give measured IC50 for every item shown.
1. Cc1cn([C@H]2C=C[C@@H](CO)O2)c(=O)[nH]c1=O [d4T, 2′,3′-didehydro-3′-deoxythymidine]
2. Nc1nc(=O)n(C2CSC(CO)O2)cc1F (stereo not shown)
3. OC[C@@H]1CC[C@H](n2cnc3c(O)ncnc32)O1
4. Nc1ccn([C@@H]2CS[C@H](CO)O2)c(=O)n1

**A:**
[600, 2140, 8940, 6980]

---

- Test system: PBMCs
- assay.name: Cytotoxicity (TC50) in PBMCs
- Type: cell-based
- conditions.used: isolate G3, subtype G; read-out: TC 50 (the source's name)
experimental.endpoint: CC50

Recorded CC50 (compound CCCCCCCCCCCCCCCCOCCCOP(=O)(O)CO[C@H](C)Cn1cnc2c(N)ncnc21 ): > 1 µM

---

- System: HIV-1IIIB
- assay.name: Two-drug combination antiviral assay in CEM cells (CPE), MacSynergy II
- Format: cell-based
- conditions.used: in combination with CMX157, CEM-SS cells, 95% confidence
experimental.endpoint: Antagonism Volume, Result 3

// known answers, use as guide
INSERT INTO measurements (molecule, experimental_system, test_value) VALUES
  ('CC(C)(C)NC(=O)[C@@H]1C[C@@H]2CCCC[C@@H]2CN1C[C@@H](O)[C@H](Cc1ccccc1)NC(=O)[C@H](CC(N)=O)NC(=O)c1ccc2ccccc2n1 [Saquinavir (SQV), saquinavir]', 'HIV-1IIIB', '0 nM^2 %, μM^2 % or nMμM %'),
  ('Cc1ccnc2c1NC(=O)c1cccnc1N2C1CC1', 'HIV-1IIIB', '0/0 nM^2 %, μM^2 % or nMμM %'),
  ('O=C1Nc2ccc(Cl)cc2C(C#CC2CC2)(C(F)(F)F)O1 (stereo not shown) [Efavirenz (EFV)]', 'HIV-1IIIB', '0 nM^2 %, μM^2 % or nMμM %'),
  ('Cc1c(O)cccc1C(=O)N[C@@H](CSc1ccccc1)[C@H](O)CN1C[C@H]2CCCC[C@H]2C[C@H]1C(=O)NC(C)(C)C', 'HIV-1IIIB', '0 nM^2 %, μM^2 % or nMμM %'),
  ('CC(C)Nc1cccnc1N1CCN(C(=O)c2cc3cc(NS(C)(=O)=O)ccc3[nH]2)CC1', 'HIV-1IIIB', '−2.58 nM^2 %, μM^2 % or nMμM %'),
  ('C[C@H](Cn1cnc2c(N)ncnc21)OCP(=O)(O)O [TFV, (R)-9-(2-phosphonylmethoxypropyl)adenine]', 'HIV-1IIIB', '0 nM^2 %, μM^2 % or nMμM %'),
  ('Cc1cccc(C)c1OCC(=O)N[C@@H](Cc1ccccc1)[C@@H](O)C[C@H](Cc1ccccc1)NC(=O)[C@H](C(C)C)N1CCCNC1=O', 'HIV-1IIIB', '−0.12 nM^2 %, μM^2 % or nMμM %'),
  ('Cc1cn([C@H]2C=C[C@@H](CO)O2)c(=O)[nH]c1=O [d4T, 2′,3′-didehydro-3′-deoxythymidine]', 'HIV-1IIIB', '−1.83 nM^2 %, μM^2 % or nMμM %');

Hi! Can you tell me Antagonism Volume, Result 3 for each of these molecules?
1. Nc1nc(NC2CC2)c2ncn([C@H]3C=C[C@@H](CO)C3)c2n1
2. CC(C)(C)NC(=O)[C@@H]1CN(Cc2cccnc2)CCN1C[C@@H](O)C[C@@H](Cc1ccccc1)C(=O)N[C@H]1c2ccccc2C[C@H]1O
3. CC(C)c1nc(CN(C)C(=O)N[C@H](C(=O)N[C@@H](Cc2ccccc2)C[C@H](O)[C@H](Cc2ccccc2)NC(=O)OCc2cncs2)C(C)C)cs1 [Ritonavir (RTV), ritonavir]
4. Cc1nnc(C(=O)NC(C)(C)c2nc(C(=O)NCc3ccc(F)cc3)c(O)c(=O)n2C)o1 [Raltegravir (RAL), raltegravir]
5. Nc1nc(=O)n(C2CSC(CO)O2)cc1F (stereo not shown)
6. Cc1cc(C#N)cc(C)c1Oc1nc(Nc2ccc(C#N)cc2)nc(N)c1Br [Etravirine (ETV), etravirine]

**A:**
1. −12.1 nM^2 %, μM^2 % or nMμM %
2. 0 nM^2 %, μM^2 % or nMμM %
3. −2.61 nM^2 %, μM^2 % or nMμM %
4. 0 nM^2 %, μM^2 % or nMμM %
5. 0 nM^2 %, μM^2 % or nMμM %
6. −0.87 nM^2 %, μM^2 % or nMμM %

Hi there! I need Antagonism Volume, Result 3 for each item below, if you can.
1. CCC[C@@]1(CCc2ccccc2)CC(O)=C([C@H](CC)c2cccc(NS(=O)(=O)c3ccc(C(F)(F)F)cn3)c2)C(=O)O1
2. Cc1cn([C@H]2C[C@H](N=[N+]=[N-])[C@@H](CO)O2)c(=O)[nH]c1=O
3. Nc1ccn([C@H]2CC[C@@H](CO)O2)c(=O)n1
4. CC(C)CN(C[C@@H](O)[C@H](Cc1ccccc1)NC(=O)O[C@H]1CO[C@H]2OCC[C@H]21)S(=O)(=O)c1ccc(N)cc1
5. CC(C)CN(C[C@@H](O)[C@H](Cc1ccccc1)NC(=O)O[C@H]1CCOC1)S(=O)(=O)c1ccc(N)cc1

**A:**
1. 0 nM^2 %, μM^2 % or nMμM %
2. −0.77 nM^2 %, μM^2 % or nMμM %
3. −15.9 nM^2 %, μM^2 % or nMμM %
4. 0 nM^2 %, μM^2 % or nMμM %
5. 0 nM^2 %, μM^2 % or nMμM %

---

- Tested on: PBMCs
- assay.name: Cytotoxicity (TC50) in PBMCs
- Assay type: cell-based
- conditions.used: isolate BR/93/029, subtype F; read-out: TC 50 (the source's name)
experimental.endpoint: CC50

Summary for this molecule, CCCCCCCCCCCCCCCCOCCCOP(=O)(O)CO[C@H](C)Cn1cnc2c(N)ncnc21 : CC50 is > 1000 nM

---

- Test system: PBMCs
- assay.name: Cytotoxicity (TC50) in PBMCs
- Format: cell-based
- conditions.used: HIV-2 isolate CBL-20
experimental.endpoint: CC50

Kindly note the recorded CC50 for CCCCCCCCCCCCCCCCOCCCOP(=O)(O)CO[C@H](C)Cn1cnc2c(N)ncnc21 , which is > 1000 nM

---

- System: HIV
- assay.name: microbe, parasite or virus in culture
- Type: cell-based
- conditions.used: Human immunodeficiency virus 1, PANEL 3, 6 TAMs, no 184
experimental.endpoint: pIC50
Answers are plain numbers, as −log10 of the molar value.

Please report pIC50 for every entry that follows.
1. Cc1cn([C@H]2C[C@H](N=[N+]=[N-])[C@@H](CO)O2)c(=O)[nH]c1=O
2. Nc1nc(NC2CC2)c2ncn([C@H]3C=C[C@@H](CO)C3)c2n1
3. Nc1nc(=O)n(C2CSC(CO)O2)cc1F (stereo not shown)
4. OC[C@@H]1CC[C@H](n2cnc3c(O)ncnc32)O1
5. CCCCCCCCCCCCCCCCOCCCOP(=O)(O)CO[C@H](C)Cn1cnc2c(N)ncnc21
6. Nc1ccn([C@@H]2CS[C@H](CO)O2)c(=O)n1
7. Cc1cn([C@H]2C=C[C@@H](CO)O2)c(=O)[nH]c1=O [d4T, 2′,3′-didehydro-3′-deoxythymidine]

**A:**
1. 5.02
2. 5.10
3. 5.24
4. 5.06
5. 8.07
6. 4.86
7. 5.66

---

- Test system: PBMCs
- assay.name: Cytotoxicity (TC50) in PBMCs
- Assay type: cell-based
- conditions.used: isolate MW/93/959, subtype C; read-out: TC 50 (the source's name)
experimental.endpoint: CC50

So, CCCCCCCCCCCCCCCCOCCCOP(=O)(O)CO[C@H](C)Cn1cnc2c(N)ncnc21 ? Its CC50 was > 1000 nM

---

- System: PBMCs
- assay.name: Cytotoxicity (TC50) in PBMCs
- Type: cell-based
- conditions.used: isolate JR-CSF, subtype B; read-out: TC 50 (the source's name)
experimental.endpoint: CC50

Lab note: compound CCCCCCCCCCCCCCCCOCCCOP(=O)(O)CO[C@H](C)Cn1cnc2c(N)ncnc21 [CMX157] tested on PBMCs; recorded CC50 was > 1000 nM

---

- Tested on: HIV-2 Isolates
- assay.name: Activity against HIV-2 isolates in PBMCs, RT endpoint
- Assay type: cell-based
- conditions.used: Human immunodeficiency virus 2, PBMC, HIV-2 isolate CBL-20
experimental.endpoint: pIC50
Answers are plain numbers, as −log10 of the molar value.

pIC50 in this record for CCCCCCCCCCCCCCCCOCCCOP(=O)(O)CO[C@H](C)Cn1cnc2c(N)ncnc21 : 8.35

src = patent US8993542B2
